tested on: HBV (genotype AeUS); assay: Test Example 2-1: anti-HBV assay in PXB-cells (fresh human hepatocytes); assay type: cell-based, hepatitis B virus; details: Hepatitis B virus, Hepatocyte; PXB-cells infected with HBV genotype AeUS, culture supernatant on day 32 post infection; read-out: IC50 HBV-DNA
Each entry below lists one item and its recorded IC50 value.
Supply the numeric figure in µM, leaving out any unit text.

Examples with answers:
chemical-smiles	measure-name	unit-label	observed-value
CCN1CCN(c2nc3ccc(-n4cc(C(=O)O)c(=O)cc4-c4ccc(N5CC[C@@H](OC)C5)cc4)cc3s2)CC1	IC50	µM	0.061
Cc1nc2ccc(-n3cc(C(=O)O)c(=O)cc3-c3ccc(N4CCCC4)cc3)cc2s1	IC50	µM	0.47

Now for a further compound.
QUERY: Would you mind telling me what IC50 value was observed for COC[C@H]1CCCN1c1nc2ccc(-n3cc(C(=O)O)c(=O)cc3-c3ccc(N4CCCC4)cc3)cc2s1 ?
RESULT: 0.015

* * *

system: HBV (genotype AeUS); experiment: Test Example 2-1: anti-HBV assay in PXB-cells (fresh human hepatocytes); assay type: cell-based, hepatitis B virus; details: Hepatitis B virus, Hepatocyte; PXB-cells infected with HBV genotype AeUS, culture supernatant on day 32 post infection; read-out: IC50 HBV-DNA
measure-name: IC50 (nM)
Supply the numeric figure in nM, leaving out any unit text.

Examples with answers:
chemical-smiles	unit-label	IC50
COC[C@H]1CCCN1c1nc2ccc(-n3cc(C(=O)O)c(=O)cc3-c3ccc(N4CCCC4)c(Cl)c3)cc2s1	nM	30
COC[C@H]1CCCN1c1nc2ccc(-n3cc(C(=O)O)c(=O)cc3-c3ccc(N4CC[C@@H](OC)C4)cc3)cc2s1	nM	18

Now for a further compound.
QUERY: Would you mind telling me what IC50 value was observed for COCCN(CCOC)c1nc2ccc(-n3cc(C(=O)O)c(=O)cc3-c3ccc(N4CCCC4)c(Br)c3)cc2s1 ?
RESULT: 25

* * *

Each entry below lists one item and its recorded IC50 value.
tested on: HBV; test: Test Example 1-2: anti-HBV assay in HepG2.2.15 cells (test solution 100 μL/well); format: cell-based, hepatitis B virus; conditions: Hepatitis B virus, culture supernatant, read-out: IC50 HBV-DNA
Supply the numeric figure in pM, leaving out any unit text.

compound	IC50 (pM)
CO[C@@H]1CCN(c2ccc(-c3cc(=O)c(C(=O)O)cn3-c3ccc4nc(N5CC(OCC6CCCO6)C5)sc4c3)cc2F)C1 (stereo partly drawn) [Example 23-3]	610
CO[C@@H]1CCN(c2ccc(-c3cc(=O)c(C(=O)O)cn3-c3ccc4nc(N5CC[C@H](N6CCOCC6)C5)sc4c3)cc2F)C1 [Example 23-1]	1700

Now for a further compound.
QUERY: Hi! What's the reported IC50 for CCOC1CN(c2nc3ccc(-n4cc(C(=O)O)c(=O)cc4-c4ccc(N5CC[C@@H](OC)C5)c(F)c4)cc3s2)C1 [Example 23-6] on HBV?
RESULT: 450

* * *

system: HBV (genotype AeUS); test: Test Example 2-1: anti-HBV assay in PXB-cells (fresh human hepatocytes); format: cell-based, hepatitis B virus; conditions: PXB-cells infected with HBV genotype AeUS, culture supernatant on day 32 post infection; read-out: IC50 HBsAg
measure-name: IC50

compound	IC50
COCCN(CCOC)c1nc2ccc(-n3cc(C(=O)O)c(=O)cc3-c3ccc(N4CC[C@@H](OC)C4)cc3)cc2s1 [Example 10-3]	56 nM

Now for a further compound.
QUERY: Would you mind telling me what IC50 value was observed for COCCN(CCOC)c1nc2ccc(-n3cc(C(=O)O)c(=O)cc3-c3ccc(N4CCCC4)c(Cl)c3)cc2s1 [Example 6-2] ?
RESULT: 81 nM
